Reported PBM E-score by item:
Biological target: Yer064c (UniProt P40041)
Sequence: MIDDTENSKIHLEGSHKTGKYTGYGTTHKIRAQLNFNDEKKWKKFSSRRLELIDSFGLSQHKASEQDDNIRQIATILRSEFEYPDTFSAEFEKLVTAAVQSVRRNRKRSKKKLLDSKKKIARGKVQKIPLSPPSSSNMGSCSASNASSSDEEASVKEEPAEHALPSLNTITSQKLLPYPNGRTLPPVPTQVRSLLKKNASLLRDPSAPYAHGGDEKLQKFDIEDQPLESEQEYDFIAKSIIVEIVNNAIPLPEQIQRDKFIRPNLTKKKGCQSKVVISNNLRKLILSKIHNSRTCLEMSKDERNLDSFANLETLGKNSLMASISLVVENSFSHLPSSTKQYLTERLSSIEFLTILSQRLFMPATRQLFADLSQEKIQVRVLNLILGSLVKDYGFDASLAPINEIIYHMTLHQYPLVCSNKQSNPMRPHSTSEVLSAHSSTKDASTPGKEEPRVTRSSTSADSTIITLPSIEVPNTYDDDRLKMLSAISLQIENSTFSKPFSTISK
Assay: PBM E-score (8-mer binding enrichment) (E-score (-0.5 to 0.5)); higher = stronger / more preferred TF binding
Conditions: protein concentration: 200 nM; construct: GST-full length
In all, about 33,000 sequences were measured (“E-score (-0.5 to 0.5)”: median about -0.036, highest 2% from about 0.37 on). Shown is part of a subset that was picked to be rich in the highest values.
Measurement Name: PBM E-score

Sequence Data	Value Measured
AACTCCGA	-0.0453
CTGAGTAC	0.291
TTGGCCAA	-0.142
GTGAGTAA	0.331
GTCATACA	0.374
ATGAGTAC	0.415
CTCATACA	0.184
AAGGTACG	-0.094
CGTCTCCC	-0.223
ATGAGTAG	0.308
ATGAGTAA	0.386
